Record form. Attribute: Response. Fill in for each entry.
tested_on: T1, biotinylated human recombinant IL-12Rβ2 (produced in-house) (human, UniProt Q99665 24-622, random biotinylated)
T1 construct: Soluble recombinant protein used for panning, ELISA and BLI; also called hIL-12RB2; hIL12RB2
T1 sequence: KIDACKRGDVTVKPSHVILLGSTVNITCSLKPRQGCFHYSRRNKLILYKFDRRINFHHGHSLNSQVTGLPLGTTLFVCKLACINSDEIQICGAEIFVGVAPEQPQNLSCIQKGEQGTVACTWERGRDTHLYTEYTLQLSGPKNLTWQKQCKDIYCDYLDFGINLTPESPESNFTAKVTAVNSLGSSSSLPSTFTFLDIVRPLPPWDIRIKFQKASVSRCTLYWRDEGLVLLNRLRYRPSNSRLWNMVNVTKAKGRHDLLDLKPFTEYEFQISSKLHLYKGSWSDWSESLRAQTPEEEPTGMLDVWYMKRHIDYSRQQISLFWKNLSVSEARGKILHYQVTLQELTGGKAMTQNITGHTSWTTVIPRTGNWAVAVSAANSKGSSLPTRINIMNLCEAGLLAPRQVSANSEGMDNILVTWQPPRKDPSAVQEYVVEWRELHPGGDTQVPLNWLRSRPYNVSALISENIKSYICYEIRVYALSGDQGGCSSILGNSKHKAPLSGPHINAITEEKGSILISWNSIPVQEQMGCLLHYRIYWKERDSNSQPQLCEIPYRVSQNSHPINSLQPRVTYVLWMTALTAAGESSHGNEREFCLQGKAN
test_method_notes: BLI (Octet Red), periplasmic extract on biotinylated human IL-12Rβ2 on streptavidin tips
Give bare numbers.

[[record]]
binder = "anti-IL-12Rβ2 VHH clone 3CRHS54 (clone ID 20422) (VHH, Tested as periplasmic extract (P.E.) from the pMECS vector; not shown: C-terminal HA tag) VHH: QVQLQESGGGLVQPGGSLRLSCTASGSIVSIYNMDWYRQAPGNEREWVASITSSGDPYYDGSAKGRFTISRDNAKMTVYLQMNSLEPEDTAVYFCKVPTEKGNYWGQGTQVTVSS"
observed_value = 0.203

[[record]]
binder = "anti-IL-12Rβ2 VHH clone 2CRH82 (clone ID 20372) (VHH, Tested as periplasmic extract; not shown: C-terminal HA tag) VHH: QVQLQESGGGLVQAGGSLRLSCAASARTESMYAMAWFRQAPGKEREIVAGIIQSGGTTYISDYMKGRFSIDRGNAENTVYLQMDSLKPEDTAVYSCAAKVSSGTPSDIQISQSRWYDHWGQGTQVTVSS"
observed_value = 0.426


# ---- query binder ----
[in] // lookup Response for anti-IL-12Rβ2 VHH clone 3CRHS163 (clone ID 20438) (VHH, Tested as periplasmic extract; also called 3CANS142; not shown: C-terminal HA tag) VHH: QVQLQESGGGLVQPGGSLRLSCTASGFAFSTYWMYWIRQSPEKGFEWVSVVNTGGDITYYADSVKGRFTISRDNAKNTLYLQMNSLKPEDTALYYCARDRTTMSYTRTYYRGGQGTQVTVSS
[out] 0.339

Where do these numbers come from? They come from patent US20260209362A1.
